TGT: T1, Human ACVR2A (human, UniProt P27037 20-135, limits assumed)
T1 construct: also called activin receptor, type II A
PROTOCOL_SUMMARY: ELISA; also: test concentration or dose not given here
MEASUREMENT_LABEL: optical density (OD)

BINDER	UNIT_OF_MEASUREMENT	MEASUREMENT
374_D08 (antibody, V domains shown) VH: EVQLLESGGGLVQPGGSLRLSCAASGFTFDSYGMNWVRQAPGKGLEWVSGINYNSGYTGYADSVKGRFTISRDNSKNTLYLQMNSLRAEDTAVYYCARSANWHDTHLDYWGQGTLVTVSS VL: DIQMTQSPSSLSASVGDRVTITCRASQSILTYLNWYQQKPGKAPKLLIYAATSRHSGVPSRFSGSGSGTDFTLTISSLQPEDFATYYCQQSYESPLTFGGGTKVEIK	OD	3.5
369_H09 (antibody, V domains shown) VH: EVQLLESGGGLVQPGGSLRLSCAASGFTFDDYSMNWVRQAPGKGLEWVSGINYNGGYTSYADSVKGRFTISRDNSKNTLYLQMNSLRAEDTAVYYCARSANWHDTALDYWGQGTLVTVSS VL: DIQMTQSPSSLSASVGDRVTITCRASQSILSYVNWYQQKPGKAPKLLIYAVTSLASGVPSRFSGSGSGTDFTLTISSLQPEDFATYYCQQSYESPLTFGGGTKVEIK	OD	2.36
369_H06 (antibody, V domains shown) VH: EVQLLESGGGLVQPGGSLRLSCAASGFTFSSYGMNWVRQAPGKGLEWVANINYNGGYKSYADSVKGRFTISRDNSKNTLYLQMNSLRAEDTAVYYCARSANWHDTALDYWGQGTLVTVSS VL: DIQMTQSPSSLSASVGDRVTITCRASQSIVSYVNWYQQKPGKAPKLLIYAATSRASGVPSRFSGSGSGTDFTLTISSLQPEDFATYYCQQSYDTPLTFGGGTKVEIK	OD	3.23
